Hello, the source for this data is patent US11014915B2, in case you need it.

assayRemarks: Pharmacokinetic study in female SD rats, single oral dose
Type: in vivo
testContext: female, SD, plasma, po; rat, 50 mg/kg p.o.
Procedure: In drug discovery it is very important to have good oral bioavailability and pharmacokinetic (PK) profile of the compound in order to become a good drug candidate for oral administration. Many compounds having potent in vitro efficacy fail to show therapeutic efficacy in human body. […] The pharmacokinetic profile of the compounds of Formula Ia and Ib were determined as per the procedure provided below. PK profiles were evaluated in female SD rats (n=2) following a single oral dose administration. […]
experimentalEndpoint: half-life (min)

[I] CC1=C(c2cc(F)cc(F)c2)[C@@H](c2ccc(/C=C/CN3CC(CF)C3)cc2)Oc2cc(O)ccc21 [Formula Ib]
[II] CC1=C(c2cc(F)cc(F)c2)[C@H](c2ccc(/C=C/CN3CC(CF)C3)cc2)Oc2cc(O)ccc21 [Formula Ia]
Q: When their half-life values are compared, which is larger, I or II ? Return value: the label identifying the chosen record.
Result: II
(II: 1560 min, I: 600 min)
